# pEC50 listing for each entry below
measurementTarget: full-length beta-Catenin (Uniprot ID P35222) (Homo sapiens (Human)) (UniProt P35222)
Sequence (P35222 whole entry): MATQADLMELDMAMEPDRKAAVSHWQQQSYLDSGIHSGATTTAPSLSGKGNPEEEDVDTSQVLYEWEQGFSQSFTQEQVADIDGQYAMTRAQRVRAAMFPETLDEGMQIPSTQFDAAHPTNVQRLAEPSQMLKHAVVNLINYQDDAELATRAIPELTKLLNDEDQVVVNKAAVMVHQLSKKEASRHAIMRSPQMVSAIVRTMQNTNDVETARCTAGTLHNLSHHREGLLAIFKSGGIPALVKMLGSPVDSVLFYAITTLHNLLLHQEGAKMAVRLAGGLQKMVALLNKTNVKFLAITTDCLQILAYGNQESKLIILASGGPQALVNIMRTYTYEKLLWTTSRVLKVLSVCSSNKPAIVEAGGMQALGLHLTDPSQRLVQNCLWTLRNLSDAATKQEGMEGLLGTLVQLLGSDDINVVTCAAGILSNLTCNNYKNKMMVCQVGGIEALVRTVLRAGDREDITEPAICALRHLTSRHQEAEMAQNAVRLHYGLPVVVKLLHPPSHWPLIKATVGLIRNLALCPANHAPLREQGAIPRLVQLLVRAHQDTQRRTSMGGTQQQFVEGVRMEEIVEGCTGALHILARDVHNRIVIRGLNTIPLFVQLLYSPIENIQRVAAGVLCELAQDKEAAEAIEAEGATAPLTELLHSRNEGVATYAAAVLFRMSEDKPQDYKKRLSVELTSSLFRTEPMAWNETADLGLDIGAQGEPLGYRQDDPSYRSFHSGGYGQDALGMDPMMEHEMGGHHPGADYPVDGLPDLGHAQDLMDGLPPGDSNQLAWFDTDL
procedureText: fluorescence polarization competition; displacement of 5FAM-TCF4(10-53) from full-length beta-catenin
pEC50: −log10 of the molar value. Starred links: 1 amine or outer side, 2 acyl side, 3 side chain; linkers in the order of their positions; H or OH if unused. Positions of bridges follow the written chain, without caps; N, C: chain ends. Non-standard residues stand in square brackets, D forms with d. Primed or numbered codes have the meaning given here. *: point of attachment. B5(4) = 2,2-bis(4-pentenyl)glycine = 2-amino-2-(pent-4-en-1-yl)hept-6-enoic acid (stitching residue), C=CCCCC(CCCC=C)(N[*:1])C(=O)[*:2]; TfeGA(3) = (S)-2-amino-3-((carboxymethyl)(2,2,2-trifluoroethyl)amino)prop[anoic acid], O=C([C@H](CN(CC(=O)[*:3])CC(F)(F)F)N[*:1])[*:2]; Ala(2-furyl) = N[C@@H](Cc1ccco1)C(=O)O; Bta = N[C@@H](Cc1csc2ccccc12)C(=O)O; αAllylPro = C=CC[C@@]1(C(=O)O)CCCN1; 2Thi = N[C@@H](Cc1cccs1)C(=O)O; 3Thi = N[C@@H](Cc1ccsc1)C(=O)O; S8 = C=CCCCCCC[C@](C)(N)C(=O)O; Dap = NC[C@H](N)C(=O)O; Acryloyl = C=CC(=O)*

binder: Ac-[αAllylPro]DA[B5(4)]DEAA[2Thi]Q[S8]F[Bta]Q-NH2 (staple 1-4, 4-11; also: later eluting isomer) [I-487]
pEC50: 7.35

binder: Ac-[αAllylPro]DI[B5(4)]DDAAFN[S8][3Thi][Bta]H-NH2 (staple 1-4, 4-11) [I-556]
pEC50: 7.70

binder: Ac-[αAllylPro]DA[B5(4)]DEAAFQ[S8]F[Bta][Ala(2-furyl)]-NH2 (staple 1-4, 4-11) [I-490]
pEC50: 7.06

binder: Ac-[αAllylPro]DI[B5(4)]DDAA[2Thi]Q[S8]F[Bta]H-NH2 (staple 1-4, 4-11) [I-489]
pEC50: 7.24

binder: Ac-[αAllylPro]DA[B5(4)]D[TfeGA(3)]AAFQ[S8]F[Bta]H-NH2 (staple 1-4, 4-11) [I-499]
pEC50: 6.91

binder: Ac-[αAllylPro]DA[B5(4)]DEAA[2Thi]Q[S8]F[Bta]Q-NH2 (staple 1-4, 4-11; also: earlier eluting isomer) [I-486]
pEC50: 6.83

binder: Ac-[αAllylPro]DI[B5(4)]DEAA[2Thi]Q[S8]F[Bta]Q-NH2 (staple 1-4, 4-11) [I-485]
pEC50: 7.47

binder: Ac-[αAllylPro]DI[B5(4)]DDAAFN[S8][3Thi][Bta]Q-NH2 (staple 1-4, 4-11) [I-552]
pEC50: 7.81

binder: Ac-[αAllylPro]DI[B5(4)]DDAAFQ[S8][Dap](Acryloyl)[Bta]Q-NH2 (staple 1-4, 4-11; also: later eluting isomer) [I-484]
pEC50: 5.30

binder: Ac-[αAllylPro]DI[B5(4)]DDAAFN[S8][3Thi][Bta]Q-NH2 (staple 1-4, 4-11) [I-551]
pEC50: 7.35
